- assay_conditions: pH 6.8
Each entry below carries its reported aqueous solubility.

{"columns": ["compound", "aqueous solubility / µg/mL"],
 "data": [
  ["CCOC(=O)N1CCC(C(=O)Nc2cccc(C)c2)CC1", 56.3],
  ["c1ccc2[nH]c(C3CCNCC3)nc2c1", 56.3],
  ["CC(C)(C)n1ncc(OCc2ccc(OCCOCCO)nc2)c(Cl)c1=O", 32.5],
  ["Cn1cc(C2CCN(CC(=O)N3CCc4sccc4C3)CC2)cn1", 62],
  ["CCc1nc(C(N)=O)c(Nc2ccc(N3CCC(N4CCN(C)CC4)CC3)c(OC)c2)nc1NC1CCOCC1", 36.3],
  ["Cc1ccnc(NC(=O)CN2CCCC2=O)c1", 55.1],
  ["COc1ccc2cc(-c3[nH]c(-c4ccc(S(C)=O)cc4)nc3-c3ccncc3)ccc2c1 (centres undefined)", 3.4],
  ["c1cc2c(N3CCNCC3)nc(-c3ccnc(NC4CCCCC4)c3)cc2cn1", 39.9],
  ["Cc1cccc2sc(NC(=O)c3cccnc3)nc12", 0.52],
  ["O=C(NC[C@H]1CCN(c2ccccc2)C1)N1CCc2sccc2C1", 16.9],
  ["Cc1cccc(Cl)c1-n1c(C)n[nH]c1=O", 16.1],
  ["COc1c(C)cccc1CN1CCC(O)(c2ccc(F)cc2)CC1", 39.7],
  ["O=C(CC1CCCC1)NCc1ccncc1", 58],
  ["CN(C)Cc1csc(-c2nccn2-c2ccc3c(c2)n(C)c(=O)n3C)c1", 31.4],
  ["O=C(CCc1cc2ccccc2o1)N1CCN(c2cnccn2)CC1", 55.5],
  ["CC(C)c1cnc(COc2ccc(Br)nc2)o1", 41.7],
  ["CCS(=O)(=O)Cc1ccn(-c2cccc(F)c2)n1", 49.2],
  ["CCOC(=O)CNC(=O)c1ccc(O)cc1O", 36.2],
  ["CCCCC1=NC2(CCCC2)C(=O)N1Cc1ccc(-c2ccccc2-c2nnn[nH]2)cc1", 29.5],
  ["Cc1cc2ncn(CC(=O)NC(C)(C)C)c2cc1C", 39.1],
  ["Cc1csc(N2CCN(Cc3ccc(OCC(F)(F)F)nc3)CC2)n1", 31],
  ["O=C(O)c1cc2cc(O)c(O)cc2c(C(=O)c2ccc(O)c(O)c2)n1", 57.9],
  ["COc1ccc(CC(=O)N2CCc3[nH]c4ccc(Cl)cc4c3C2)cc1OC", 6.7],
  ["Cc1oc2cc(OCC(=O)Nc3nccs3)ccc2c(=O)c1Oc1ccc(F)cc1", 0.5]
]}

---

Each entry below carries its reported intrinsic clearance, rat liver microsomes.
result_type: intrinsic clearance, rat liver microsomes

{"columns": ["sample_smiles", "recorded_measurement"],
 "data": [
  ["Cc1noc(-c2ccc(NC(=O)Cc3ccccc3)cc2)n1", "57.1 mL/min/kg"],
  ["Cc1ccc(C2=NC3(CCN(Cc4ccc(F)cc4)CC3)NC2=O)cc1", "669 mL/min/kg"],
  ["COC(c1ccccc1)(c1ccccc1)[C@H](Oc1nc(C)cc(C)n1)C(=O)O", "≤ 10.7 mL/min/kg"],
  ["Cc1ccccc1C(=O)Nc1nc(C)c(C)s1", "280 mL/min/kg"],
  ["O=C(c1noc2c1CCCC2)N1CCN(c2ncccn2)CC1", "2910 mL/min/kg"],
  ["CN(C)[C@@H]1CN(C(=O)c2cc3ccc(F)cc3[nH]2)C[C@H]1O", "121 mL/min/kg"],
  ["CCCc1cc(N2CCc3c(nc(C(C)C)n3C)C2)n2ncnc2n1", "183 mL/min/kg"],
  ["CC(=O)N1CCCN(Cc2c(C)nn(C)c2Cl)CC1", "43.7 mL/min/kg"],
  ["CN1N=C(SCc2ccc(Cl)cc2Cl)Sc2c1cnn(C)c2=O", "1890 mL/min/kg"],
  ["Cn1nc(C2CC2)c2[nH]c(-c3cccc(CN4CCOCC4)c3)nc21", "244 mL/min/kg"],
  ["Cc1cc(C)nc(NS(=O)(=O)c2ccc(NC(=O)/C=C/c3ccc([N+](=O)[O-])s3)cc2)n1", "57.3 mL/min/kg"]
]}
